Test system: C4-2B cells
Assay: C4-2B cell proliferation by free uptake (MTT)
Type: cell-based, human
Settings: dose 0.04 μM, day 6
Oligonucleotides are written 5' to 3', each unit as a sugar letter and its base; * is a phosphorothioate linkage, no mark a phosphodiester; rarer units and linkages stand in square brackets, end groups in braces. Plain capitals give the bases only. k = constrained ethyl (cEt); [5mC] = 5-methylcytosine; d = 2'-deoxy (DNA)
property: Percent inhibition of cell proliferation (%)
Report as a plain number; the unit % is understood.

{"sequence record": "ACCAAGTTTCTTCAGC (LNA gapmer, phosphorothioate backbone, further chemistry not given here) [ISIS 554221, 3-10-3 LNA gapmer, phosphorothioate backbone, targeted to exon 4 of AR; benchmark, reference compound]", "property": "Percent inhibition of cell proliferation", "unit annotation": "%", "obs value": 0}
{"sequence record": "CTAAACTTCCCGTGGC (k[5mC]*kT*kA*dA*dA*d[5mC]*dT*dT*d[5mC]*d[5mC]*d[5mC]*dG*dT*kG*kG*k[5mC]) [ISIS 549434, targets 3'-end of exon 8]", "property": "Percent inhibition of cell proliferation", "unit annotation": "%", "obs value": 0}
{"sequence record": "AAGTTGTAGTAGTCGC (kA*kA*kG*dT*dT*dG*dT*dA*dG*dT*dA*dG*dT*k[5mC]*kG*k[5mC]) [ISIS 549372, targets exon 1]", "property": "Percent inhibition of cell proliferation", "unit annotation": "%", "obs value": 8}

Now for a further sequence.
Ask: Provide only the value of recorded Percent inhibition of cell proliferation for GTTGATTTAATGGTTG (all phosphorothioate, sugars by position not given here; further chemistry not fully specified) [ISIS 549458]
Reply: 7

meta.source: patent USRE48461E1
